Please respond with reported melting point for every item in the list.

Return melting point (reported value) for this compound: "C=C(C)CO[C@H]1[C@H](C)OC(=O)[C@@H](NC(=O)c2nccc(OC)c2OCOC(C)=O)COC(=O)[C@@H]1Cc1ccccc1"
102 to 104 °C

Return melting point (reported value) for this compound: "COc1ccnc(C(=O)N[C@H]2COC(=O)[C@H](Cc3ccccc3)[C@@H](OCC(C)C)[C@H](C)OC2=O)c1O"
168 to 169 °C

Return melting point (reported value) for this compound: "C=C(C)CO[C@H]1[C@H](C)OC(=O)[C@@H](NC(=O)c2nccc(OC)c2OCc2ccccc2)COC(=O)[C@@H]1Cc1ccccc1"
50 to 52 °C

Return melting point (reported value) for this compound: "CCCO[C@H]1[C@H](C)OC(=O)[C@@H](NC(=O)c2nccc(OC)c2O)COC(=O)[C@@H]1Cc1ccccc1"
150 to 152 °C
